B1: FAM46C (parent)
chain: VRSRLEEAGIKVHDVRLNGSAAGH

variants of: B1; assay: protein stability index of a GFP-peptide fusion (GPS, HEK-293T) (PSI 1-6); higher = more stable; conditions: c terminus: a fixed tail appended;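 also: lentivirally expressed fusions sorted by FACS into six bins by GFP to DsRed ratio, PSI derived from sequencing read proportions per bin multiplied by bin number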
Reported metric: protein stability index
No unit in the answer, only the number.

The cases that follow already have their protein stability index on record.
VLSRLEEAGIKVHDVRLNGSAAGH [R2L]; 2.34
VRSRLEEADIKVHDVRLNGSAAGH [G9D]; 3.89

Please give the documented protein stability index of VRSRLEEAGIKVHDVRLNGSAAGN [H24N] 3.78

Please give measured protein stability index of the following entry: VRSRLEETGIKVHDVRLNGSAAGH [A8T] 3.2
